Listing of entries alongside the reported pIC50.
- Study System: T1, human Bcl-2 ΔC22 (human, UniProt P10415 1-217)
- T1 construct: Recombinant, bacterial, N-terminal HexaHis fusion; hydrophobic C-terminus removed; also called hBcl-2
- T1 sequence (P10415 other isoform, or with tags, fused parts or gaps mutant limits assumed): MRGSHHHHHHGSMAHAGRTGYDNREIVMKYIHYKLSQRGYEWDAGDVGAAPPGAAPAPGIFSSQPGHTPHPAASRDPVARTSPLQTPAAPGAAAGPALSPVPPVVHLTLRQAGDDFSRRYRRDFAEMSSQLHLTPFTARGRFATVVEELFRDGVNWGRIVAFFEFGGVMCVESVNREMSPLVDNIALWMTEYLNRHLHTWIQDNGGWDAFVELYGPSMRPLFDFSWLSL
- Protocol Details: Biacore solution competition against immobilised mouse wtBimBH3
pIC50: −log10 of the molar value.

>  <Binder>
HRAEVQIARKLQCIADQFHRLHTQ (also called BmfBH3) [m Bmf (128-151) BH3 peptide]

>  <Value Qualifier>
=

>  <pIC50>
8.52

$$$$
>  <Binder>
NLWAAQRYGRELRRMSDEFVDSFKKG (also called BadBH3) [Bad (103-128) BH3 peptide, human]

>  <Value Qualifier>
=

>  <pIC50>
7.80

$$$$
>  <Binder>
DIIRNIARHLAQVGDSMDRSIPPG (also called BidBH3) [Bid (81-104) BH3 peptide, human]

>  <Value Qualifier>
=

>  <pIC50>
5.17

$$$$
>  <Binder>
PAELEVECATQLRRFGDKLNFRQKLL (also called NoxaBH3; wt NoxaBH3) [Noxa (18-43) BH3 peptide, human]

>  <Value Qualifier>
<

>  <pIC50>
4.00

$$$$
